Origin of values: paper PMC11995724

# Test system: S. aureus MSSA476
# Construct: MSSA476
# Parameters: species or system S. aureus MSSA476 (TSB) or V. cholerae SAD30 (LB); 384-well bacterial growth screen at 25 uM, OD600 relative to DMSO control
# Applied Conditions: relative growth, OD600, TSB; 25 µM; inhibitor
The whole screen tested about 3,200 compounds, of which about 75 (2%) showed an effect of 50% or more. The entries come from a sample that favours strong results as a whole.
For each record, write down the corresponding % of control remaining.
One number for each entry, in %.

Below, each entry is followed by its recorded % of control remaining result.
| Compound | Value Unit | % of control remaining |
| --- | --- | --- |
| N#CC(=Cc1cc2ccccc2o1)C(=O)NCc1ccco1 | % | 115.056 |
| Cc1cc(C(=O)CCl)c(C)n1-c1ccc(OC(F)(F)F)cc1 | % | 115.313 |
| CC(O)=C(C#N)C(=O)Nc1ccc(-c2ccccc2Cl)c(Cl)c1 | % | 33.2584 |
| C=CC(=O)Nc1cc(NC(=O)c2ccc([N+](=O)[O-])o2)ccc1F | % | -4.528 |
| O=C(CCl)NCC(=O)Nc1nccs1 | % | 86.3388 |

Go through the list and state % of control remaining for each entry.
1. Cc1cc(C(=O)CCl)c(C)n1-c1ccc(OC(F)F)c(Cl)c1
2. O=C(CCl)Cc1ccc(Cl)c(Cl)c1
3. O=C1C=CC(=O)N1c1ccccc1Sc1ccc(Cl)cc1

[0, 111.25, 10.9375]
